Biological target: T1, human C1r, full-length enzyme (human, UniProt P00736 18-705)
T1 construct: complement C1r, human, 92 kDa, CUB1-EGF-CUB2-CCP1-CCP2-SP; bought as purified full-length enzyme; source: bought: Complement Technology (Tyler, TX), purified
T1 sequence: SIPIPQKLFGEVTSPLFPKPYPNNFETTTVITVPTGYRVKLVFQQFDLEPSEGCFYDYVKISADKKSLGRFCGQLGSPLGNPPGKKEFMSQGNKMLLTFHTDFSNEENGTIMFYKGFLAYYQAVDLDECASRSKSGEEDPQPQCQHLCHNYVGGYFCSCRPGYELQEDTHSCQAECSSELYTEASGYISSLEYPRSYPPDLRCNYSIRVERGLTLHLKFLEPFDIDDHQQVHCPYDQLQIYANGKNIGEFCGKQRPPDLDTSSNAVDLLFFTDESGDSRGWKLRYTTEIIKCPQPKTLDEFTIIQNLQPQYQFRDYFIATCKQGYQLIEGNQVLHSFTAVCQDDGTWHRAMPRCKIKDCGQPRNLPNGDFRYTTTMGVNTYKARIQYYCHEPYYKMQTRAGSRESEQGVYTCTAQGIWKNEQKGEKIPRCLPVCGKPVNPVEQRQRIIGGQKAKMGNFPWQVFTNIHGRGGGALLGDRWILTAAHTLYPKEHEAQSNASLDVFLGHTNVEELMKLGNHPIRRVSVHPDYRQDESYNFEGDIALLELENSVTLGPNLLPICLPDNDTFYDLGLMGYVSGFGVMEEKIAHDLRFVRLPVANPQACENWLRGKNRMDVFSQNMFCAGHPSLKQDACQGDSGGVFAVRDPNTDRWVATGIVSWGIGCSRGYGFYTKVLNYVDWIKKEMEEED
Test: SPR; Biacore T200, 25°C; borrelial protein immobilised by amine coupling; C1r as analyte, single-cycle kinetics, five-fold dilution series 1.6 to 1000 nM; HBS-T with 5 mM CaCl2; 1:1 kinetic fit; triplicate
Conditions: both partners purified
quantity.kind: kon

binder	assay.value
BBK32(206-348) (residues 206-348, B. burgdorferi strain B31) (domain or fragment, BBK32, Borrelia burgdorferi strain B31, residues 206-348 (lacks six C-terminal residues relative to BBK32-C); also called BBK32-C(206-348); source: recombinant, sub-cloned into pT7HMT, purified to homogeneity) SNRYQSYLEGVKYNVDSAIQTITKIYNTYTLFSTKLTQMYSTRLDNFAKAKAKEEAAKFTKEDLEKNFKTLLNYIQVSVKTAANFVYINDTHAKRKLENIEAEIKTLIAKIKEQSNLYEAYKAIVTSILLMRDSLKEVQGIID	13000 M⁻¹ s⁻¹
BXK32-C (BBK32-C E308K-Q319K-E324Q) (domain or fragment, Borrelia burgdorferi strain B31, UniProt O50835 206-354, looked up, BBK32, Borrelia burgdorferi strain B31, residues 206-354 (the limits of BBK32-C) with three residues changed to those of B. garinii BGD19; also called BBK32-E308K-Q319K-E324Q; chimeric BBK32-C; source: recombinant, E. coli codon-optimized synthetic DNA in pT7HMT, purified to homogeneity) SNRYQSYLEGVKYNVDSAIQTITKIYNTYTLFSTKLTQMYSTRLDNFAKAKAKEEAAKFTKEDLEKNFKTLLNYIQVSVKTAANFVYINDTHAKRKLENIEAKIKTLIAKIKEKSNLYQAYKAIVTSILLMRDSLKEVQGIIDKNGVWY	22000 M⁻¹ s⁻¹
BBK32-C (residues 206-354, B. burgdorferi strain B31) (domain or fragment, BBK32, Borrelia burgdorferi sensu stricto strain B31, residues 206-354; also called BBK32(206-354); source: recombinant, sub-cloned into pT7HMT, purified to homogeneity) SNRYQSYLEGVKYNVDSAIQTITKIYNTYTLFSTKLTQMYSTRLDNFAKAKAKEEAAKFTKEDLEKNFKTLLNYIQVSVKTAANFVYINDTHAKRKLENIEAEIKTLIAKIKEQSNLYEAYKAIVTSILLMRDSLKEVQGIIDKNGVWY	17000 M⁻¹ s⁻¹
BGD19-C (residues 206-354, B. garinii strain IP90) (domain or fragment) SNRYQSYLEGVKYNVDSAIKTITKIYDTYTLFLTKLTQMYSTRLDNLAKAKAKEEAAKFTKEDLEKNFKTLLNYIQVSVKTATNFVYINDTHAKRKLENIETKIKTLIAKIKEKSNLYQAYKAIVRPILLMRDSLKEVQGAIDKNGIWY	15000 M⁻¹ s⁻¹
